# System: bovine vascular smooth muscle cells (bVSMCs)
# Assay type: cell-based
# DETAILS: 0.5 uM, 7 days, MTT, mean of three experiments
Listing: Cell viability of bVSMCs after seven days (MTT signal, relative to control) of selected molecules
Could you keep your reply to the number by itself?

Examples with their reported Cell viability of bVSMCs after seven days (MTT signal, relative to control) follow.
[
  {
    "MOLECULE": "COc1ccccc1Oc1c(NS(=O)(=O)c2ccc(C(C)(C)C)cc2)nc(-c2ncccn2)nc1OCCO [bosentan MH, Bosentan monohydrate]",
    "REPORTED_RESULT": 101.97
  },
  {
    "MOLECULE": "NC(=O)c1cccc(N)c1 [3-AB, 3-aminobenzamide]",
    "REPORTED_RESULT": 95.77
  },
  {
    "MOLECULE": "COc1ccc([C@@H]2Sc3ccccc3N(CCN(C)C)C(=O)[C@@H]2OC(C)=O)cc1 [Diltiazem, diltiazem]",
    "REPORTED_RESULT": 98.78
  },
  {
    "MOLECULE": "O=C1CCc2cc(OCCCCc3nnnn3C3CCCCC3)ccc2N1 [cilostazol]",
    "REPORTED_RESULT": 98.22
  },
  {
    "MOLECULE": "CN(C)CC(=O)Nc1ccc2[nH]c(=O)c3ccccc3c2c1.Cl [PJ34]",
    "REPORTED_RESULT": 102.59
  },
  {
    "MOLECULE": "CC(=O)CCCCn1c(=O)c2c(ncn2C)n(C)c1=O [Pentoxifylline, pentoxifylline]",
    "REPORTED_RESULT": 97.68
  }
]

In the following, a different molecule is considered.
Qu. If you can, please state the reported Cell viability of bVSMCs after seven days (MTT signal, relative to control) value of O=C1NCCc2c(OCCCCN3CCCCC3)cccc21 [DPQ] .
Ans. 100.30

###

Listing: Cell viability by MTT, percent of control of selected molecules
# Test system: human monocyte-macrophages (HMMs)
# TEST_NAME: MTT toxicity assay, HMMs, seven days (Example 3)
# Assay type: cell-based
# DETAILS: 2 uM, 7 days, MTT, mean of three experiments
Could you keep your reply to the number by itself?

[
  {
    "MOLECULE": "O=C1NCCc2c(OCCCCN3CCCCC3)cccc21 [DPQ]",
    "REPORTED_RESULT": 89.59
  }
]

Qu. If you can, please state the reported Cell viability by MTT, percent of control value of CC(=O)CCCCn1c(=O)c2c(ncn2C)n(C)c1=O [Pentoxifylline, pentoxifylline] .
Ans. 91.92

Qu. If you can, please state the reported Cell viability by MTT, percent of control value of NC(=O)c1cccc(N)c1 [3-AB, 3-aminobenzamide] .
Ans. 88.03

Qu. If you can, please state the reported Cell viability by MTT, percent of control value of CN(C)CC(=O)Nc1ccc2[nH]c(=O)c3ccccc3c2c1.Cl [PJ34] .
Ans. 84.08

Qu. If you can, please state the reported Cell viability by MTT, percent of control value of COc1ccc([C@@H]2Sc3ccccc3N(CCN(C)C)C(=O)[C@@H]2OC(C)=O)cc1 [Diltiazem, diltiazem] .
Ans. 99.61

Qu. If you can, please state the reported Cell viability by MTT, percent of control value of O=C1CCc2cc(OCCCCc3nnnn3C3CCCCC3)ccc2N1 [cilostazol] .
Ans. 75.63

Qu. If you can, please state the reported Cell viability by MTT, percent of control value of COc1ccccc1Oc1c(NS(=O)(=O)c2ccc(C(C)(C)C)cc2)nc(-c2ncccn2)nc1OCCO [bosentan MH, Bosentan monohydrate] .
Ans. 97.16

###

Listing: Cell viability by MTT, percent of control of selected molecules
# Tested on: human monocyte-macrophages (HMMs)
# TEST_NAME: MTT toxicity assay, HMMs, seven days (Example 3)
# Format: cell-based
# DETAILS: 50 uM, 7 days, MTT, mean of three experiments
Could you keep your reply to the number by itself?

Examples with their reported Cell viability by MTT, percent of control follow.
[
  {
    "MOLECULE": "NC(=O)c1cccc(N)c1 [3-AB, 3-aminobenzamide]",
    "TARGET_OR_TEST_SYSTEM": "human monocyte-macrophages (HMMs)",
    "REPORTED_RESULT": 95.92
  },
  {
    "MOLECULE": "CC(=O)CCCCn1c(=O)c2c(ncn2C)n(C)c1=O",
    "TARGET_OR_TEST_SYSTEM": "human monocyte-macrophages (HMMs)",
    "REPORTED_RESULT": 89.28
  },
  {
    "MOLECULE": "COc1ccccc1Oc1c(NS(=O)(=O)c2ccc(C(C)(C)C)cc2)nc(-c2ncccn2)nc1OCCO [bosentan MH, Bosentan monohydrate]",
    "TARGET_OR_TEST_SYSTEM": "human monocyte-macrophages (HMMs)",
    "REPORTED_RESULT": 73.65
  },
  {
    "MOLECULE": "O=C1NCCc2c(OCCCCN3CCCCC3)cccc21",
    "TARGET_OR_TEST_SYSTEM": "human monocyte-macrophages (HMMs)",
    "REPORTED_RESULT": 86.74
  }
]

Qu. If you can, please state the reported Cell viability by MTT, percent of control value of O=C1CCc2cc(OCCCCc3nnnn3C3CCCCC3)ccc2N1 .
Ans. 73.73

Qu. If you can, please state the reported Cell viability by MTT, percent of control value of COc1ccc([C@@H]2Sc3ccccc3N(CCN(C)C)C(=O)[C@@H]2OC(C)=O)cc1 .
Ans. 92.16

###

Listing: Cell viability of bVSMCs after seven days (MTT signal, relative to control) of selected compounds
# Tested on: bovine vascular smooth muscle cells (bVSMCs)
# Type: cell-based
# DETAILS: 20 uM, 7 days, MTT, mean of three experiments
Marks after values point to notes of the source that are not given here.

Examples with their reported Cell viability of bVSMCs after seven days (MTT signal, relative to control) follow.
[
  {
    "COMPOUND": "COc1ccc([C@@H]2Sc3ccccc3N(CCN(C)C)C(=O)[C@@H]2OC(C)=O)cc1 [Diltiazem, diltiazem]",
    "REPORTED_RESULT": "113.60*"
  },
  {
    "COMPOUND": "O=C1CCc2cc(OCCCCc3nnnn3C3CCCCC3)ccc2N1 [cilostazol]",
    "REPORTED_RESULT": "90.45*"
  },
  {
    "COMPOUND": "CC(=O)CCCCn1c(=O)c2c(ncn2C)n(C)c1=O [Pentoxifylline, pentoxifylline]",
    "REPORTED_RESULT": "92.43*"
  }
]

Qu. If you can, please state the reported Cell viability of bVSMCs after seven days (MTT signal, relative to control) value of COc1ccccc1Oc1c(NS(=O)(=O)c2ccc(C(C)(C)C)cc2)nc(-c2ncccn2)nc1OCCO [bosentan MH, Bosentan monohydrate] .
Ans. 97.20

###

# Test system: human monocyte-macrophages (HMMs)
# TEST_NAME: MTT toxicity assay, HMMs, seven days (Example 3)
# Assay type: cell-based
# DETAILS: 1 uM, 7 days, MTT, mean of three experiments
Listing: Cell viability by MTT, percent of control of selected compounds
Could you keep your reply to the number by itself?

Qu. If you can, please state the reported Cell viability by MTT, percent of control value of O=C1NCCc2c(OCCCCN3CCCCC3)cccc21 .
Ans. 88.68

Qu. If you can, please state the reported Cell viability by MTT, percent of control value of COc1ccccc1Oc1c(NS(=O)(=O)c2ccc(C(C)(C)C)cc2)nc(-c2ncccn2)nc1OCCO [bosentan MH, Bosentan monohydrate] .
Ans. 99.82

Qu. If you can, please state the reported Cell viability by MTT, percent of control value of CC(=O)CCCCn1c(=O)c2c(ncn2C)n(C)c1=O .
Ans. 90.57

Qu. If you can, please state the reported Cell viability by MTT, percent of control value of CN(C)CC(=O)Nc1ccc2[nH]c(=O)c3ccccc3c2c1.Cl .
Ans. 88.38

Qu. If you can, please state the reported Cell viability by MTT, percent of control value of NC(=O)c1cccc(N)c1 [3-AB, 3-aminobenzamide] .
Ans. 80.78

Qu. If you can, please state the reported Cell viability by MTT, percent of control value of COc1ccc([C@@H]2Sc3ccccc3N(CCN(C)C)C(=O)[C@@H]2OC(C)=O)cc1 .
Ans. 104.94

Qu. If you can, please state the reported Cell viability by MTT, percent of control value of O=C1CCc2cc(OCCCCc3nnnn3C3CCCCC3)ccc2N1 .
Ans. 103.62

###

# Test system: human monocyte-macrophages (HMMs)
# TEST_NAME: MTT toxicity assay, HMMs, seven days (Example 3)
# Assay type: cell-based
# DETAILS: 100 uM, 7 days, MTT, mean of three experiments
Marks after values point to notes of the source that are not given here.
METRIC_NAME: Cell viability by MTT, percent of control

[
  {
    "COMPOUND": "COc1ccccc1Oc1c(NS(=O)(=O)c2ccc(C(C)(C)C)cc2)nc(-c2ncccn2)nc1OCCO [bosentan MH, Bosentan monohydrate]",
    "REPORTED_RESULT": "64.97*"
  },
  {
    "COMPOUND": "COc1ccc([C@@H]2Sc3ccccc3N(CCN(C)C)C(=O)[C@@H]2OC(C)=O)cc1",
    "REPORTED_RESULT": "53.65*"
  }
]

In the following, a different compound is considered.
Qu. If you can, please state the reported Cell viability by MTT, percent of control value of CN(C)CC(=O)Nc1ccc2[nH]c(=O)c3ccccc3c2c1.Cl .
Ans. 37.30*
